Listed next: entries and their corresponding Sampling time/Dissociation percent (%) 5 min.
experiment.notes: In vitro dissociation in blood plasma of rat
Format: in vitro ADME, SD rats
experimental.setup: fresh SD rat plasma, 37° C., 5 min incubation
Write the number in % without appending the unit.

| compound | value |
| --- | --- |
| CC(=O)O[C@@]12CO[C@@H]1C[C@H](O)[C@@]1(C)C(=O)[C@H](O)C3=C(C)[C@@H](OC(=O)[C@H](OC(=O)[C@H](F)CCN(C)C)[C@@H](NC(=O)OC(C)(C)C)c4ccccc4)C[C@@](O)([C@@H](OC(=O)c4ccccc4)[C@H]21)C3(C)C.CS(=O)(=O)O | 93.4 |
| CC(=O)O[C@H]1C(=O)[C@@]2(C)[C@H]([C@H](OC(=O)c3ccccc3)[C@]3(O)C[C@H](OC(=O)[C@H](OC(=O)[C@H](F)CCN(C)C)[C@@H](NC(=O)c4ccccc4)c4ccccc4)C(C)=C1C3(C)C)[C@]1(OC(C)=O)CO[C@@H]1C[C@@H]2O.CS(=O)(=O)O | 97.0 |

Prompt: Consider the compound CCN(C)C(C)C[C@H](C(=O)O[C@@H](C(=O)O[C@H]1C[C@@]2(O)[C@@H](OC(=O)c3ccccc3)[C@@H]3[C@]4(OC(C)=O)CO[C@@H]4C[C@H](O)[C@@]3(C)C(=O)[C@H](O)C(=C1C)C2(C)C)[C@@H](NC(=O)OC(C)(C)C)c1ccccc1)C(C)(F)F.CS(=O)(=O)O (stereo partly drawn) and give its measured Sampling time/Dissociation percent (%) 5 min.
Response: 74.8

---

experiment.notes: In vitro dissociation in blood plasma of rat
Format: in vitro ADME, SD rats
experimental.setup: fresh SD rat plasma, 37° C., 2 min incubation
reported.metric: Sampling time/Dissociation percent (%) 2 min
Write the number in % without appending the unit.

Prompt: Consider the compound CO[C@H]1C(=O)[C@]2(C)[C@@H](OC)C[C@H]3OC[C@@]3(OC(C)=O)[C@H]2[C@H](OC(=O)c2ccccc2)[C@]2(O)C[C@H](OC(=O)[C@H](OC(=O)[C@@H](F)CCN(C)C)[C@@H](NC(=O)OC(C)(C)C)c3ccccc3)C(C)=C1C2(C)C.CS(=O)(=O)O and give its measured Sampling time/Dissociation percent (%) 2 min.
Response: 49.4

Prompt: Record: CO[C@H]1C(=O)[C@]2(C)[C@@H](OC)C[C@H]3OC[C@@]3(OC(C)=O)[C@H]2[C@H](OC(=O)c2ccccc2)[C@]2(O)C[C@H](OC(=O)[C@H](OC(=O)[C@@H](CCN)C(F)F)[C@@H](NC(=O)OC(C)(C)C)c3ccccc3)C(C)=C1C2(C)C.O=S(=O)(O)O
Response: 45.6

Prompt: Record: CC(=O)OC12COC1CCC1(C)C3OC(CN(C)C)OC3C3=C(C)C(OC(=O)C(OC(=O)C(F)CC(C)N(C)C)C(NC(=O)OC(C)(C)C)c4ncccc4F)CC(O)(C(OC(=O)c4ccccc4)C12)C3(C)C.CS(=O)(=O)O (stereo not shown)
Response: 59.3

Prompt: Record: CC(=O)O[C@@]12CO[C@@H]1CC[C@@]1(C)[C@@H]3O[C@H](CN(C)C)O[C@@H]3C3=C(C)[C@@H](OC(=O)[C@H](OC(=O)[C@H](F)CC(C)N(C)C)[C@@H](NC(=O)OC(C)(C)C)c4ncccc4F)C[C@@](O)([C@@H](OC(=O)c4ccccc4)[C@@H]12)C3(C)C.Cl (stereo partly shown)
Response: 60.7
